target: RAC-alpha serine/threonine-protein kinase (Homo sapiens)
Sequence (P31749 whole entry): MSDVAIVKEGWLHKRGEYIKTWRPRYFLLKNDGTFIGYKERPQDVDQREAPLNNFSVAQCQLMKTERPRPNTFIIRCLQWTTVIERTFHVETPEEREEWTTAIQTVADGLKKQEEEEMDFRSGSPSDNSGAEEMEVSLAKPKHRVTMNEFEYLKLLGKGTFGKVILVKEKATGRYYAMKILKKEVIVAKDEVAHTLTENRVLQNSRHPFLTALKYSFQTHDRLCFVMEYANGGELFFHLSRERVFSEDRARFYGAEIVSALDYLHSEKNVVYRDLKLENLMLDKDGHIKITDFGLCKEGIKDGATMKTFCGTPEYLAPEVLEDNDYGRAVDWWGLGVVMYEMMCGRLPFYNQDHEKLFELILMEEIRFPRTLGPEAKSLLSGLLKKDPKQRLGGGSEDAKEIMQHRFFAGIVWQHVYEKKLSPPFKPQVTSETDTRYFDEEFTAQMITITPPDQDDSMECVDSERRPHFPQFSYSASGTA
property: pIC50
Give bare numbers, as −log10 of the molar value.

Given the entry COc1ccc(OC)c(/C=C/C(=O)C(=Cc2cc(Br)c(O)c(OC)c2)C(=O)/C=C/c2cc(OC)ccc2OC)c1 , report its measured pIC50.
5.30

---

Assign IC50 to each entry below.
Test system: SW480
assay_explanation: Antiproliferative activity against human SW480 cells after 48 hrs by SRB assay
Assay type: functional, cell-based
experimental_setup: SW480, 48 h

Param item = COc1ccc(/C=C/C(=O)C(=Cc2cc(Br)c(O)c(OC)c2)C(=O)/C=C/c2ccc(OC)cc2OC)c(OC)c1 ; retrieve measured IC50.
1480 nM

Return reported IC50 values for all items listed beneath this line.
1. COc1ccc(/C=C/C(=O)C(=Cc2ccc(O)c(OC)c2)C(=O)/C=C/c2ccc(OC)cc2OC)c(OC)c1
2. COc1ccc(/C=C/C(=O)C(=Cc2ccc(OC)c(O)c2)C(=O)/C=C/c2ccc(OC)cc2OC)c(OC)c1
3. COc1cc(OC)c(C=C(C(=O)/C=C/c2cccc(OC)c2OC)C(=O)/C=C/c2cccc(OC)c2OC)c(OC)c1

1520 nM
1370 nM
840 nM

# batch: return IC50 for each of the 6 molecules below
1. COc1cc(C=C(C(=O)/C=C/c2cccc(OC)c2OC)C(=O)/C=C/c2cccc(OC)c2OC)cc(OC)c1O
2. COc1cccc(C=C(C(=O)/C=C/c2cccc(OC)c2OC)C(=O)/C=C/c2cccc(OC)c2OC)c1OC
3. COc1cc(OC)c(/C=C/C(=O)C(=Cc2cc(Br)c(O)c(OC)c2)C(=O)/C=C/c2c(OC)cc(OC)cc2OC)c(OC)c1
4. COc1cc(OC)c(/C=C/C(=O)/C=C(O)/C=C/c2c(OC)cc(OC)cc2OC)c(OC)c1
5. COc1cccc(/C=C/C(=O)C(=Cc2ccc(OC)c(OC)c2OC)C(=O)/C=C/c2cccc(OC)c2OC)c1OC
6. COc1ccc(OC)c(/C=C/C(=O)/C=C(O)/C=C/c2cc(OC)ccc2OC)c1

420 nM
590 nM
1450 nM
> 50000 nM
560 nM
15600 nM

# batch size: 4; output IC50 per entry
1. COc1ccc(OC)c(/C=C/C(=O)C(=Cc2cc(Br)c(O)c(OC)c2)C(=O)/C=C/c2cc(OC)ccc2OC)c1
2. COc1cccc(/C=C/C(=O)C(=Cc2cc(OC)c(OC)c(OC)c2)C(=O)/C=C/c2cccc(OC)c2OC)c1OC
3. COc1ccc(/C=C/C(=O)C(=Cc2cc(OC)c(O)c(OC)c2)C(=O)/C=C/c2ccc(OC)cc2OC)c(OC)c1
4. COc1cccc(/C=C/C(=O)C(=Cc2ccc(F)cc2)C(=O)/C=C/c2cccc(OC)c2OC)c1OC

1: 490 nM; 2: 650 nM; 3: 850 nM; 4: 1040 nM

---

Tested on: SW480
assay_explanation: Antiproliferative activity against human SW480 cells after 48 hrs by SRB assay
Format: functional, cell-based
experimental_setup: SW480, 48 h
pIC50: −log10 of the molar value.
# label = 1 if pIC50 >= 6 else -1

API: above_or_equal(metric=pIC50, cutoff=6) for item COc1ccc(OC)c(/C=C/C(=O)C(=Cc2ccc(OC)c(OC)c2)C(=O)/C=C/c2cc(OC)ccc2OC)c1
1

Identify whether the reported pIC50 of the following compound is 6 or greater: COc1ccc(OC)c(/C=C/C(=O)C(=Cc2ccc(O)c(F)c2)C(=O)/C=C/c2cc(OC)ccc2OC)c1
1

Check this compound for pIC50 at or above 6: COc1cc(OC)c(/C=C/C(=O)C(=Cc2ccc(O)c(F)c2)C(=O)/C=C/c2c(OC)cc(OC)cc2OC)c(OC)c1
-1
